Origin of values: the NIST ThermoML archive (doi:10.1016/j.fluid.2012.11.013)

conditions: 283.15 K; 2000 kPa; Liquid; Vibrating tube method
RESULT_TYPE: mass density (kg/m3)

- SMILES_RECORD: "CCCC(C)C"
  mass density, kg/m3: 664.49
- SMILES_RECORD: "CCC(C)(C)C"
  mass density, kg/m3: 660.76
- SMILES_RECORD: "CC(C)C(C)C"
  mass density, kg/m3: 672.72
- SMILES_RECORD: "CCC(C)CC"
  mass density, kg/m3: 675.33

---

conditions: 323.15 K; 20000 kPa; Liquid; Vibrating tube method
RESULT_TYPE: mass density (kg/m3)

- MOLECULE: "CCCC(C)C [2-methylpentane]"
  mass density / kg/m3: 649.56
- MOLECULE: "CCC(C)CC [3-methylpentane]"
  mass density / kg/m3: 659.72
- MOLECULE: "CC(C)C(C)C [2,3-dimethylbutane]"
  mass density / kg/m3: 657.61
- MOLECULE: "CCC(C)(C)C [2,2-dimethylbutane]"
  mass density / kg/m3: 646.65
